- system: CDK1/cyclinB (h) (Homo sapiens)
- experiment_description: Kinase profiling C3.2 CDK1/cyclinB human
- Type: biochemical
- conditions: test concentration of 10^−6 M
measured_property: C3.2 score

[[record]]
molecule = "O=C1NCCCc2cc(ccn2)-c2ncnc(n2)Nc2cccc(c2)CN2CCCC12 (centres unmarked) [Compound 12]"
measured_property = "C3.2 score"
experimental_result = "3 (Score 3 = 60-80% inhibition)"

[[record]]
molecule = "CN1CC(=O)NCCCc2cc(ccn2)-c2ncnc(n2)Nc2cccc(c2)C1 [Compound 10]"
measured_property = "C3.2 score"
experimental_result = "4 (Score 4 = >80% inhibition)"

[[record]]
molecule = "O=C1NCCNc2cc(ccn2)-c2ncnc(n2)Nc2cccc(c2)CN2CCC[C@H]12 [Compound 18]"
measured_property = "C3.2 score"
experimental_result = "3 (Score 3 = 60-80% inhibition)"

[[record]]
molecule = "O=C1NCCCc2cc(ccn2)-c2ncnc(n2)Nc2cc(Cl)cc(c2)CN2CCC[C@@H]12 [Compound 38]"
measured_property = "C3.2 score"
experimental_result = "4 (Score 4 = >80% inhibition)"

[[record]]
molecule = "O=C1CCN2CCN(CC2)Cc2cc(Cl)cc(c2)Nc2ncnc(n2)-c2ccnc(c2)CCCN1 [Compound 37]"
measured_property = "C3.2 score"
experimental_result = "4 (Score 4 = >80% inhibition)"

[[record]]
molecule = "O=C1NCCCc2cncc(c2)-c2ncnc(n2)Nc2cccc(c2)CN[C@H]1CO [Compound 81]"
measured_property = "C3.2 score"
experimental_result = "4 (Score 4 = >80% inhibition)"

[[record]]
molecule = "O=C1CN2CCN(CC2)Cc2cccc(c2)Nc2ncnc(n2)-c2ccc(F)c(c2)CCCN1 [Compound 66]"
measured_property = "C3.2 score"
experimental_result = "4 (Score 4 = >80% inhibition)"

[[record]]
molecule = "CN1CCCC(=O)NCCc2cccc(c2)Nc2ncnc(n2)-c2ccnc(c2)CCC1 [Compound 24]"
measured_property = "C3.2 score"
experimental_result = "2 (Score 2 = 30-60% inhibition)"

[[record]]
molecule = "CN1CCC(=O)NCCCc2cc(ccn2)-c2ncnc(n2)Nc2cc(Cl)cc(c2)C1 [Compound 32]"
measured_property = "C3.2 score"
experimental_result = "4 (Score 4 = >80% inhibition)"

[[record]]
molecule = "O=C1NCCCc2cc(ccc2F)-c2ncnc(n2)Nc2cc(Cl)cc(c2)CN[C@H]1CO [Compound 71]"
measured_property = "C3.2 score"
experimental_result = "4 (Score 4 = >80% inhibition)"

[[record]]
molecule = "O=C1CN2CCN(CC2)Cc2cccc(c2)Nc2ncnc(n2)-c2cncc(c2)CCCN1 [Compound 84]"
measured_property = "C3.2 score"
experimental_result = "3 (Score 3 = 60-80% inhibition)"

[[record]]
molecule = "CN1CCCC(=O)NCCCc2cc(ccn2)-c2ncnc(n2)Nc2cccc(c2)C1 [Compound 13]"
measured_property = "C3.2 score"
experimental_result = "1 (Score 1 = 10-30% inhibition)"

[[record]]
molecule = "CN1CC(=O)NCCCc2cc(ccn2)-c2ncnc(n2)Nc2cccc(c2)C1 [Compound 8]"
measured_property = "C3.2 score"
experimental_result = "4 (Score 4 = >80% inhibition)"

[[record]]
molecule = "CN1CCN(CCN2CCC(=O)NCCCc3cc(ccn3)-c3ncnc(n3)Nc3cccc(c3)C2)CC1 [Compound 11]"
measured_property = "C3.2 score"
experimental_result = "1 (Score 1 = 10-30% inhibition)"

[[record]]
molecule = "O=C1NCCc2cccc(c2)Nc2ncnc(n2)-c2ccnc(c2)CCCN2C[C@H](O)C[C@@H]12 [Compound 25]"
measured_property = "C3.2 score"
experimental_result = "3 (Score 3 = 60-80% inhibition)"

[[record]]
molecule = "O=C1CN2CCN(CC2)Cc2cccc(c2)Nc2ncnc(n2)-c2ccnc(c2)CCCN1 [Compound 9]"
measured_property = "C3.2 score"
experimental_result = "4 (Score 4 = >80% inhibition)"

[[record]]
molecule = "O=C1CN2CCN(CC2)Cc2cccc(c2)Nc2ncnc(n2)-c2cccc(c2)CCCN1 [Compound 52]"
measured_property = "C3.2 score"
experimental_result = "4 (Score 4 = >80% inhibition)"


---

- system: CDK1/cyclinB (h) (Homo sapiens, UniProt P06493)
- Sequence (P06493 whole entry): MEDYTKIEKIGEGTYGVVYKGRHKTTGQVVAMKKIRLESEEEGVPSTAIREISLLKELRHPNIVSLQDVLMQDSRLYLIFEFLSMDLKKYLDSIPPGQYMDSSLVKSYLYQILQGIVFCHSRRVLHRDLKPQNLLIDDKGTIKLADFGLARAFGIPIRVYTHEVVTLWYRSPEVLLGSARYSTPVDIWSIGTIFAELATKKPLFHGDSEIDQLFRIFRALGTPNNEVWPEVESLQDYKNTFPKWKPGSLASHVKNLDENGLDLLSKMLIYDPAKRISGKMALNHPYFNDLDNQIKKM
- Sequence (P14635 whole entry partner): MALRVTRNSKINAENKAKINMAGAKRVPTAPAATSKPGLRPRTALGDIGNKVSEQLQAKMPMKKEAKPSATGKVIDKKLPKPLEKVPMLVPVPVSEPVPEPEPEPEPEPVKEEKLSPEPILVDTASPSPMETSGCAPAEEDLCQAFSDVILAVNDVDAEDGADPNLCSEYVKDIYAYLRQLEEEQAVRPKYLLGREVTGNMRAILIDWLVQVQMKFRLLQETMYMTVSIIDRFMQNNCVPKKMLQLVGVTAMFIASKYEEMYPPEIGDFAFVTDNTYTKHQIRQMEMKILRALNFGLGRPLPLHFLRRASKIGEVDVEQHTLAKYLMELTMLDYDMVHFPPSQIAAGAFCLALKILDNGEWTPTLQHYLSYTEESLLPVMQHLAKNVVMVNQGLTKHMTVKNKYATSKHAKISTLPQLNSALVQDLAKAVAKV
- experiment_description: Kinase profiling C3.2 CDK1/cyclinB human
- Type: biochemical
- conditions: test concentration of 10^−6 M
measured_property: C3.2 score

[[record]]
compound = "O=C1NCCCc2cc(ccn2)-c2ncnc(n2)Nc2cccc(c2)CN2CCCC1C2 (stereo not shown) [Compound 15]"
system = "CDK1/cyclinB (h) (Homo sapiens, UniProt P06493)"
experimental_result = "1 (Score 1 = 10-30% inhibition)"

[[record]]
compound = "CN1CC(=O)NCCCc2cc(ccn2)-c2ncnc(n2)Nc2cc(Cl)ccc2C1 [Compound 31]"
system = "CDK1/cyclinB (h) (Homo sapiens, UniProt P06493)"
experimental_result = "3 (Score 3 = 60-80% inhibition)"

[[record]]
compound = "O=C1CCN2CCN(CC2)Cc2cccc(c2)Nc2ncnc(n2)-c2ccnc(c2)NCCN1 [Compound 19]"
system = "CDK1/cyclinB (h) (Homo sapiens, UniProt P06493)"
experimental_result = "4 (Score 4 = >80% inhibition)"

[[record]]
compound = "CCN1CCCc2cc(ccn2)-c2ncnc(n2)Nc2cccc(c2)CCNC(=O)C1 [Compound 30]"
system = "CDK1/cyclinB (h) (Homo sapiens, UniProt P06493)"
experimental_result = "4 (Score 4 = >80% inhibition)"


---

- system: CDK2/cyclinE (h) (Homo sapiens)
- experiment_description: Kinase profiling C3.4 CDK2/cyclinE human
- Format: biochemical
- conditions: test concentration of 10^−6 M
molecules and their reported C3.4 score
measured_property: C3.4 score

[[record]]
molecule = "CN1CCN(CCN2CCC(=O)NCCCc3cc(ccn3)-c3ncnc(n3)Nc3cccc(c3)C2)CC1"
experimental_result = "1 (Score 1 = 10-30% inhibition)"

[[record]]
molecule = "O=C1NCCCc2cc(ccn2)-c2ncnc(n2)Nc2cccc(c2)CN2CCCC12 (stereo not shown)"
experimental_result = "4 (Score 4 = >80% inhibition)"

[[record]]
molecule = "O=C1NCCCc2cc(ccc2F)-c2ncnc(n2)Nc2cc(Cl)cc(c2)CN[C@H]1CO"
experimental_result = "4 (Score 4 = >80% inhibition)"

[[record]]
molecule = "O=C1NCCNc2cc(ccn2)-c2ncnc(n2)Nc2cccc(c2)CN2CCC[C@H]12"
experimental_result = "4 (Score 4 = >80% inhibition)"


---

- system: CDK7/cyclinH/MAT1 (h) (Homo sapiens, UniProt P50613)
- Sequence (P50613 whole entry): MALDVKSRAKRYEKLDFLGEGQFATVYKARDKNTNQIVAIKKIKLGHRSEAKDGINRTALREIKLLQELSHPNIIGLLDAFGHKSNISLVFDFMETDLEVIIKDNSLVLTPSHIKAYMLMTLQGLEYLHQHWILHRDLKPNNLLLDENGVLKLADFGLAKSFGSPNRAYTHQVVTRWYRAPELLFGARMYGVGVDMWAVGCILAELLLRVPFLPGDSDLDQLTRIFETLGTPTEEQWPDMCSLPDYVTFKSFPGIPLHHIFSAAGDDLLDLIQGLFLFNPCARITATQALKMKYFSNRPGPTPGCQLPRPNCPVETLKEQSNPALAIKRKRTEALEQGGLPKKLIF
- Sequence (P51946 whole entry partner): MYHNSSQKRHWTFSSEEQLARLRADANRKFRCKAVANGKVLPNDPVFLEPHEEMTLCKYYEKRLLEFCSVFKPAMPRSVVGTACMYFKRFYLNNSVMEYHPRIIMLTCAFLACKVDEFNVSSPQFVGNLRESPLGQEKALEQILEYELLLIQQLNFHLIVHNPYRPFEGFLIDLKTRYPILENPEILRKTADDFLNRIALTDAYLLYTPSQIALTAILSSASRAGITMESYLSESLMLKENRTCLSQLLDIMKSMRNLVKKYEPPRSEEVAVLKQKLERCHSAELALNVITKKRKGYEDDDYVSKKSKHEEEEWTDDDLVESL
- Sequence (P51948 whole entry partner): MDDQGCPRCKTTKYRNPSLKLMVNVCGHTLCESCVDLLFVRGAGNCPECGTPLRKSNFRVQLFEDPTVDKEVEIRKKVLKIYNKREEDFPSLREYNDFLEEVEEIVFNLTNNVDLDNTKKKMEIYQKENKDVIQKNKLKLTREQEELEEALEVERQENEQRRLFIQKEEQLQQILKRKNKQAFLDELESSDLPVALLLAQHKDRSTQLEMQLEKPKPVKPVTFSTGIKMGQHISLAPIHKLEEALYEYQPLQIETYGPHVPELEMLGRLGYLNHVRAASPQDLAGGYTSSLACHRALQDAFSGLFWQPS
- experiment_description: Kinase profiling C3.8 CDK7/cyclinH/MAT1 human
- Assay type: biochemical
- conditions: CDK7/cyclinH/MAT1, test concentration of 10^−6 M
measured_property: C3.8 score

[[record]]
compound = "O=C1CN2CCN(CC2)Cc2cc(Cl)cc(c2)Nc2ncnc(n2)-c2ccnc(c2)CCCN1"
system = "CDK7/cyclinH/MAT1 (h) (Homo sapiens, UniProt P50613)"
measured_property = "C3.8 score"
experimental_result = "2 (Score 2 = 30-60% inhibition)"

[[record]]
compound = "O=C1NCCCc2cc(ccn2)-c2ncnc(n2)Nc2cccc(c2)CN2CCCC12 (centres unmarked)"
system = "CDK7/cyclinH/MAT1 (h) (Homo sapiens, UniProt P50613)"
measured_property = "C3.8 score"
experimental_result = "3 (Score 3 = 60-80% inhibition)"

[[record]]
compound = "CN1CC(=O)NCCCc2cc(ccn2)-c2ncnc(n2)Nc2cc(Cl)ccc2C1"
system = "CDK7/cyclinH/MAT1 (h) (Homo sapiens, UniProt P50613)"
measured_property = "C3.8 score"
experimental_result = "1 (Score 1 = 10-30% inhibition)"

[[record]]
compound = "CN1CC(=O)NCC#Cc2cc(ccn2)-c2ncnc(n2)Nc2cccc(c2)C1"
system = "CDK7/cyclinH/MAT1 (h) (Homo sapiens, UniProt P50613)"
measured_property = "C3.8 score"
experimental_result = "4 (Score 4 = >80% inhibition)"

[[record]]
compound = "CCN1CCCc2cc(ccn2)-c2ncnc(n2)Nc2cccc(c2)CCNC(=O)C1"
system = "CDK7/cyclinH/MAT1 (h) (Homo sapiens, UniProt P50613)"
measured_property = "C3.8 score"
experimental_result = "3 (Score 3 = 60-80% inhibition)"

[[record]]
compound = "O=C1NCCNc2cc(ccn2)-c2ncnc(n2)Nc2cccc(c2)CN2CCC[C@H]12"
system = "CDK7/cyclinH/MAT1 (h) (Homo sapiens, UniProt P50613)"
measured_property = "C3.8 score"
experimental_result = "2 (Score 2 = 30-60% inhibition)"

[[record]]
compound = "O=C1CN2CCN(CC2)Cc2cccc(c2)Nc2ncnc(n2)-c2ccc(F)c(c2)CCCN1"
system = "CDK7/cyclinH/MAT1 (h) (Homo sapiens, UniProt P50613)"
measured_property = "C3.8 score"
experimental_result = "1 (Score 1 = 10-30% inhibition)"

[[record]]
compound = "CCN1CC(=O)NCCCc2cccc(c2)-c2ncnc(n2)Nc2cccc(c2)C1"
system = "CDK7/cyclinH/MAT1 (h) (Homo sapiens, UniProt P50613)"
measured_property = "C3.8 score"
experimental_result = "1 (Score 1 = 10-30% inhibition)"

